# Test Summary: Steady-state plasma concentrations of polymyxin B (total of B1, B2, B1-Ile) by LC-MS/MS
# Type: in vivo
# Condition Summary: human, iv, 50 mg, patient ID 17, TIME 120, DOSE 50 every 12 from 0 (DUR 1, ADDL 10), WT 75, CCR 55.08, ALB 38.8, APACHE 22, single measurement, read-out: OUT (observed polymyxin B plasma concentration)
Positions of bridges follow the written chain, without caps; N, C: chain ends. Non-standard residues stand in square brackets, D forms with d. Residues, ends and D or L forms follow the SMILES beside them. *: point of attachment. X1 = CC[C@H](C)CCCCC(=O)*; Dab = NCC[C@H](N)C(=O)O

Compound | Scale Unit | level at 120 h
CC[C@H](C)CCCCC(=O)N[C@@H](CCN)C(=O)N[C@H](C(=O)N[C@@H](CCN)C(=O)N[C@H]1CCNC(=O)[C@H]([C@@H](C)O)NC(=O)[C@H](CCN)NC(=O)[C@H](CCN)NC(=O)[C@H](CC(C)C)NC(=O)[C@@H](Cc2ccccc2)NC(=O)[C@H](CCN)NC1=O)[C@@H](C)O [polymyxin B] (X1-[Dab]T[Dab][Dab][Dab][dF]L[Dab][Dab]T; lactam 4-C) | ng/mL | 4530
